Test system: UACC-257 melanoma
assay-name: NCI-60 one-dose screen, 48 h
condition-summary: 10 µM
Description: Cells are grown in 96 well plates and exposed to the test compound for 48 hours. Compounds are tested at a single concentration, which is 10^-5 M for most compounds. The reported endpoint is percent growth (GI% or GIPRCNT), where numbers from 0 - 100% represent growth inhibition, and numbers from -100% - 0 represent cell death. For example, a value of 40 represents 60% growth inhibition. A value of 0 means no net growth occurred over the course of the experiment. […]
The panel holds about 83,000 compounds, 20% with a hit somewhere; the sample as a whole holds those more often. Activity calls are given as the source filed them. How the source made its calls: active means growth percent below 10; inactive means the rest.
Select the matching outcome among Y for active, N for inactive

**Q:** Outcome? N#Cc1cnn(C(=O)c2nn(-c3ccc(Cl)cc3)cc2O)c1N
**A:** N

**Q:** // outcome(item) with item = COc1cccc(-c2nc3sccn3c2-c2cccc(S(C)(=O)=O)c2)c1
**A:** N

**Q:** Query: recorded result category for COc1cc2c(cc1OC)C(C(CCCCCC(CCC(C)C)C1NCCc3cc(OC)c(OC)cc31)CCC(C)C)NCC2 (stereo unspecified) in this test
**A:** Y

**Q:** Assay outcome for CC(C)(C)OC(=O)N1CCc2c(sc3ncnc(N/N=C/c4cccc5ccccc45)c23)C1 : what was it?
**A:** N
